Molecular target: Indoleamine 2,3-dioxygenase 1 (Homo sapiens)
Sequence (P14902 whole entry): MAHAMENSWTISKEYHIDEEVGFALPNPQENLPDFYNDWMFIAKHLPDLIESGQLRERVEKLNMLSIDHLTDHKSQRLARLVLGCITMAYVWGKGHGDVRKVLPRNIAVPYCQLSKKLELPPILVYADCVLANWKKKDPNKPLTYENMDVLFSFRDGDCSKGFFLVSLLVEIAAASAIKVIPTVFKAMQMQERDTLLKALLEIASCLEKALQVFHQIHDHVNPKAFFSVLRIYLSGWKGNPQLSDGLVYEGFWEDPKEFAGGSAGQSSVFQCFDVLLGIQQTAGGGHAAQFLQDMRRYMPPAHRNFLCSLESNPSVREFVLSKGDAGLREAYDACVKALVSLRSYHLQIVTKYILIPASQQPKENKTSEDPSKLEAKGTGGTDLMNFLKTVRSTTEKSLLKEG
Assay: Inhibition of human IDO1 incubated for 60 mins in presence of L-tryptophan by HPLC analysis
OBSERVATION TYPE: IC50 (µM)

COc1ccccc1Cc1c[nH]c2ccc(Cl)cc12 ... 63
COc1ccccc1Sc1c[nH]c2ccc(Br)cc12 ... 24
COc1cc(OC)cc(Sc2c[nH]c3ccc(Cl)cc23)c1 ... 7
COc1cc(OC)cc(Sc2c[nH]c3ccccc23)c1 ... 25
COc1cccc(Sc2c[nH]c3ccc(Cl)cc23)c1 ... 21

====

Biological target: Indoleamine 2,3-dioxygenase 1 (Homo sapiens)
Test: Inhibition of human IDO1 incubated for 60 mins in presence of L-tryptophan by HPLC analysis
OBSERVATION TYPE: IC50 (µM)

Cc1cc(C)cc(Sc2c[nH]c3ccc(Cl)cc23)c1 ... 20
COc1ccc(Sc2c[nH]c3ccc(Cl)cc23)cc1 ... 16
COc1cc(OC)cc(Sc2c(C)[nH]c3ccc(Cl)cc23)c1 ... 45
COc1cc(OC)cc(Sc2c[nH]c3cccc(Cl)c23)c1 ... 52
